Ref: patent US20200147199A1

system tested: ZIKV E Domain III ([..]), polyhistidine-AviTag, produced in HEK-293-6E cells (ZIKV)
test description: ELISA on coated ZIKV EDIII
measurement context: remark: other sources report otherwise
# binning rule on EC50: low group: < 0.03 µg/mL; middle group: ≥ 0.03 µg/mL and < 0.07 µg/mL; high group: ≥ 0.07 µg/mL

Z011 (MEX105_15) (antibody, V domains shown) VH: EVQLLESGGGLVQPGGSLRLSCAASGFTFRTYAMSWVRQPPGKGLEWVSSISAREDSTYFAASVRGRFTISRDNSKNTLYLQMNNLRAEDTALYYCAKDRLQLGVGELYESWGQGTLVTVSS VL: DIQMTQSPSTLSASVGDRVTITCRASQNINSWLAWYQQKPGKAPKLLIYMASSLQSGVPSRFSGSGSGTEFTLTVSSLQPDDFATYYCQHYHSYPWTFGQGTKVEIK    middle group

# input Just checking, what class would you give Z062 (BRA112_70) (antibody, V domains shown) VH: EVQLVESGGGVVQPGRSLRLSCAASGFSFSSHAMYWVRQAPGKGLEWVAIVSYDGSTKNYADSVKGRFTISRDNSKNTIYLHLNSLRAEDTAVYFCAREVDGIYGYLHYWGQGTLVTVSS VL: EIVLTQSPATLSLSPGERATLSCRARQNVRNFLAWYQQKPGQAPRLLIYDASNRATDIPARFSGSGSGTDFTLTISSLEPEDFAVYYCQQRSYSITFGQGTRLEIK here?
# output high group

# input Further, for Z002 (MEX18_27) (antibody, V domains shown) VH: EVQLLESGGGLVQPGGSLRLSCATSGFTFSTYAMSWVRQAPGKGLEWVSSFSGVDDSTYYAESVKGRFTISRDNSKNTVYLQMTRLRAEDTAVYYCAKDRGPRGVGELFDSWGQGTLVTVSS VL: DIQMTQSPSTLSASVGDRVTMTCRASQSINRWLAWYQQKPGKAPKLLIYTTSTLKSGVPSRFSGSGSGTEFTLTISSLQPDDFATYYCQHFHSVPWTFGQGTKVEIK ?
# output low group

# input Further, for Z008 (MEX105_60) (antibody, V domains shown) VH: EVQLLESGGGLVRPGGSLRLSCTASGFTFRRFAMAWVRQAPGKGLEWVSLIWNGDDSTYYAESVRGRFTISRDNSHNTLSLQMRSLRAEDTAIYYCVKDRDNGWSSIVDWGQGTLVTVSS VL: DIQMTQSPSTLSASVGDRVTITCRASQTIGNWLAWYQQKPGKAPKLLIYQASVLESGVPSRFSGSGSGTEFTLTISSLQPEDFATYFCQQYSTFWTFGQGTKVEIK ?
# output middle group

# input Further, for Z036 (BRA112_91) (antibody, V domains shown) VH: EVQLLESGGDLVQPGGSLRLSCAASGFTFSTYGMAWVRQAPGKGLEWLSSISSVDDSKYYAASVKGRFTISRDNSRNTLYLHMNSLRVDDTAVYYCAKDRIPHGLGELYANWGQGTLVTVSS VL: DIQMTQSPSTLSASVGDRVTITCRASQSISGWLAWYQQKPGKAPRLLMHKASNLYSGVPSRFSGSGSGTEFTLTISSLQPDDFATYYCQHYHSYPYTFGQGTKVEIK ?
# output low group

# input Further, for Z057 (MEX84_p4-54) (antibody, V domains shown) VH: EVQLVQSGAEVKRPGASVKVSCKASGYTFADYYIHWVRQAPGLGLEWMGWINPKTGFSHYEQTFQGRVTMARDTSIPAAYMELSSLKSDDTAIYYCARGGRINVAEALRYWGQGSLVTVSS VL: DIQMTQSPSTLSTFVGDRVTITCRASQTIGDWLAWYQQKPGKAPKLLISKATRLESGVPSRFSGSGSETEFSLTINSLQPDDVAAYYCQQYMSYPWTFGQGTKLEIK ?
# output high group

# input Further, for Z034 (BRA112_09) (antibody, V domains shown) VH: EVQLLESGGGLAQPGGSLRLSCETSGFTFRSYGMGWVRQAPGKGLEWVSSIYISGDSTYYAASVKGRFTISRDNSKSTLYLQMDRLTAEDTAVYYCVRDRIQGGFGELYRYWGQGTLVTVSS VL: DIQMTQSPSTLSASVGDRVTMTCRASQSVNKWLAWYQQKPGKAPKLLIYETSILESGVSSRFSGSGSGTEFTLTISSLQPDDFATYYCQHYHGYPWTFGQGTKVEIK ?
# output low group

# input Further, for Z017 (MEX84_p2-58) (antibody, V domains shown) VH: QVQLVQSGAGMRKPGASVKVSCKASGYSFNDYYIHWVRQAPGQGLEWMGWINPKSGFTNYAQRFQGRVTMTGDTSNSVAYMELTRLTSDDTAVYYCARGGRINAPLGFDPWGQGTLVTVSS VL: EIVLTQSPDTLSLSPGETATLSCRASQSIGSISLGWYQQKFGQAPRLLIYGASTRATGTPDRFSGSGSETDFTLTISRLEPEDSAVYYCQQYVSSPLRFGGGTKVEIK ?
# output high group

# input Further, for Z016 (MEX84_p2-55) (antibody, V domains shown) VH: QVQLVQSGAEVKKPGASVKLSCKASGYTFTSYYVHWVRQAPGQGLEWMGIINPGNNFVSFAQNFYDRATMTRDTSTNTVYMELTNLQSEDTAVYYCARTLVAPSAQSMYYFDFWGQGTLVTVSS VL: EIVLTQSPGTLSLSPGERGTLSCRASQYITTGHFAWYQQKPGRAPRLLIYGASVRATGVPDRFSGSGAETDFTLTISRLDPEDVGVYYCQQYGSSPVTFGPGTKVDIK ?
# output high group
